Molecular target: TGFβ R1 (Homo sapiens)
Sequence (P36897 34-503): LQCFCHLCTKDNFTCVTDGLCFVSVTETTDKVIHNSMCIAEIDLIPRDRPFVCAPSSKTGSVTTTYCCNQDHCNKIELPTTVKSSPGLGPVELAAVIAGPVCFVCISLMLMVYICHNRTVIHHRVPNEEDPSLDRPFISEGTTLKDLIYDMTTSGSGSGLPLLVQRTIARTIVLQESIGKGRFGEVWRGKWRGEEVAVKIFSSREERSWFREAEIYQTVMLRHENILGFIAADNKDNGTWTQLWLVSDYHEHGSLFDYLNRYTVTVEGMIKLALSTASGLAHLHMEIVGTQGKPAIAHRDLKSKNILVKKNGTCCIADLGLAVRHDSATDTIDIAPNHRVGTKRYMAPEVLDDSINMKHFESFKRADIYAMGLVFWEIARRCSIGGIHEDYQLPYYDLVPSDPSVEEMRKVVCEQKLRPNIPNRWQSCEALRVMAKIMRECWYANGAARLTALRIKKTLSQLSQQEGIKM
Experiment: TGFβ R1 autophosphorylation protocol (33P-ATP, phosphocellulose filter plate)
Assay type: biochemical
Settings: 10 uM ATP, 170 nM TGFβ R1, room temperature 20 minutes, read-out: IC50 for Kinase Inhibition
PROPERTY: IC50 (µM)

>>> df
                                    molecule    val
 0  CC(C)c1cnc(-c2cc(Cl)ccc2F)nc1Nc1ccncc1C(=O)NC1CCC[C@@H]1OCc1ccccc1 (stereo in doubt) [Compound 223]   7.14
 1  CC(C)c1cnc(-c2cc(Cl)ccc2F)nc1Nc1ccncc1C(=O)NC[C@H](C)OP(=O)(O)O [Compound 234]  0.178
 2  CC(C)c1cnc(-c2cc(Cl)ccc2F)nc1Nc1ccncc1C(=O)NCCCN1CCC[C@@H]1C(=O)N(C)C [Compound 181]  0.006
 3  COc1cnc(-c2cc(Cl)ccc2F)nc1Nc1ccncc1C(=O)NCCCN1CCC[C@@H]1C(N)=O [Compound 166]  0.005
 4  CC(C)c1cnc(-c2cc(Cl)ccc2F)nc1Nc1ccncc1C(=O)NC[C@H](C)OC(=O)[C@H](N)C(C)C [Compound 207]  0.017
 5  CC(C)c1cnc(-c2cc(Cl)ccc2F)nc1Nc1ccncc1C(=O)NC[C@H](C)OC(=O)[C@H](C)N [Compound 204]  0.025
 6  COC(=O)C1CCCN1CCCNC(=O)c1cnccc1Nc1nc(-c2cc(Cl)ccc2F)ncc1OC (stereo not drawn) [Compound 175]  0.031
 7  COc1cnc(-c2cc(Cl)ccc2F)nc1Nc1cc[n+]([O-])cc1C(=O)NC[C@H](C)O [Compound 197]  0.675
 8  CC(C)c1cnc(-c2cc(Cl)ccc2F)nc1Nc1ccncc1C(=O)NCCCO [Compound 188]  0.005
 9  CC(C)c1cnc(-c2cc(Cl)ccc2F)nc1Nc1ccncc1C(=O)NCCCN1CCC[C@H]1C(=O)N(C)C [Compound 171]  0.005
10  CC(C)c1cnc(-c2cc(Cl)ccc2F)nc1Nc1ccncc1C(=O)NCCCN1CCC[C@H]1CO [Compound 164]  0.002
11  O=C(NCCCn1ccnc1)c1cnccc1Nc1nc(-c2cc(Cl)ccc2F)ncc1C1CCCC1 [Compound 219]  0.044
12  COc1cnc(-c2cc(Cl)ccc2F)nc1Nc1ccncc1C(=O)NCC(C)=O [Compound 168]  0.024
13  CCOCCCNC(=O)c1cnccc1Nc1nc(-c2cc(Cl)ccc2F)ncc1C(C)C [Compound 187]  0.012
14  CC(C)c1cnc(-c2cc(Cl)ccc2F)nc1Nc1ccncc1C(=O)N1CCC[C@H](O)C1 [Compound 214]  0.283

* * *

Overview of recorded IC50 for various compounds
Target: TGFβ R1 (Homo sapiens, UniProt P36897)
Sequence (P36897 34-503): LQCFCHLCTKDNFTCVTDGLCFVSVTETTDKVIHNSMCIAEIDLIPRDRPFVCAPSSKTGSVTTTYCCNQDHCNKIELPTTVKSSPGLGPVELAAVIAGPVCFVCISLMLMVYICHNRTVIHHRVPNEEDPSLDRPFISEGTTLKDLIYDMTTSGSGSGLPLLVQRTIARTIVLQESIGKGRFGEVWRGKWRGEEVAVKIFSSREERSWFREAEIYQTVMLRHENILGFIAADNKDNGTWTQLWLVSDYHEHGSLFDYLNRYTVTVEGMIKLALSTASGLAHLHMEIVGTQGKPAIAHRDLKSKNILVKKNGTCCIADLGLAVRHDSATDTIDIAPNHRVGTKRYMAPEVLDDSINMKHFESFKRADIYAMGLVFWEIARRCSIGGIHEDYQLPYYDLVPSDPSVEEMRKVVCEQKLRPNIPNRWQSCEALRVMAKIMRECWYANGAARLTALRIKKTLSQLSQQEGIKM
Assay: TGFβ R1 autophosphorylation protocol (33P-ATP, phosphocellulose filter plate)
Assay type: biochemical
Conditions: 10 uM ATP, 170 nM TGFβ R1, 20 minutes at room temperature, read-out: IC50 for Kinase Inhibition
PROPERTY: IC50 (nM)

>>> df
                                   compound   val
0  CCNC(=O)NCCCNC(=O)c1cnccc1Nc1nc(-c2cc(Cl)ccc2F)ncc1OC   110
1  COc1cnc(-c2cc(Cl)ccc2F)nc1Nc1ccncc1C(=O)NCCCN(C(=O)CC1O[C@H](CO)[C@@H](O)[C@H](O)[C@H]1O)C(C)C (some centres unmarked)    47
2  COc1cnc(-c2cc(Cl)ccc2F)nc1Nc1ccncc1C(=O)NCCCNC(C)=O  1340
3  COc1cnc(-c2cc(Cl)ccc2F)nc1Nc1ccncc1C(=O)NCC(C)(C)O   470
4  COc1cnc(-c2cc(Cl)ccc2F)nc1Nc1ccncc1C(=O)N[C@@H]1CCNC1    24
5  COc1cnc(-c2cc(Cl)ccc2F)nc1Nc1ccncc1C(=O)NCCCNC(=O)NC(C)C   270
6  CC(C)c1cnc(-c2cc(Cl)ccc2F)nc1Nc1ccncc1C(=O)NCCCN1CC[C@@H](O)C1    40
7  COc1cnc(-c2cc(Cl)ccc2F)nc1Nc1ccncc1C(=O)NCC(O)CN (centres unmarked)   100

* * *

target: TGFβ R1 (Homo sapiens); assay: TGFβ R1 autophosphorylation protocol (33P-ATP, phosphocellulose filter plate); type: biochemical; conditions: 10 uM ATP, 170 nM TGFβ R1, 20 minutes at room temperature, read-out: IC50 for Kinase Inhibition
Overview of recorded log10(IC50) for various compounds
PROPERTY: log10(IC50) (log10 of the value in nM)

COMPOUND	TARGET_OF_ASSAY	PROPERTY	VAL
COc1cnc(-c2cc(Cl)ccc2F)nc1Nc1ccncc1C(=O)NOCC1CC1 [Compound 129]	TGFβ R1 (Homo sapiens)	log10(IC50)	1.77
COc1cnc(-c2cc(Cl)ccc2F)nc1Nc1ccncc1C(=O)NCCCNC(=O)Nc1ccccc1 [Compound 65]	TGFβ R1 (Homo sapiens)	log10(IC50)	2.77
COc1cnc(-c2cc(Cl)ccc2F)nc1Nc1ccncc1C(=O)NCCNCCOC1O[C@H](CO)[C@@H](O)[C@H](O)[C@H]1O (stereo partly drawn) [Compound 144]	TGFβ R1 (Homo sapiens)	log10(IC50)	1.00
COc1cnc(-c2cc(Cl)ccc2F)nc1Nc1ccncc1C(=O)NCCCN(CCC1O[C@H](CO)[C@@H](O)[C@H](O)[C@@H]1O)C(C)C (stereo partly drawn) [Compound 153]	TGFβ R1 (Homo sapiens)	log10(IC50)	1.28
COc1cnc(-c2cc(Cl)ccc2F)nc1Nc1ccncc1C(=O)NCC1CN(C(=O)OC(C)(C)C)C1 [Compound 105]	TGFβ R1 (Homo sapiens)	log10(IC50)	2.38
COc1cnc(-c2cc(Cl)ccc2F)nc1Nc1ccncc1C(=O)NCCCNCCC1O[C@H](CO)[C@@H](O)[C@H](O)[C@H]1O (stereo partly drawn) [Compound 127]	TGFβ R1 (Homo sapiens)	log10(IC50)	1.80
CNCCNC(=O)c1cnccc1Nc1nc(-c2cc(Cl)ccc2F)ncc1N1CCCC1 [Compound 22]	TGFβ R1 (Homo sapiens)	log10(IC50)	2.00
COc1cnc(-c2cc(Cl)ccc2F)nc1Nc1ccncc1C(=O)NCC(O)CN1CCOCC1 (stereo not drawn) [Compound 73]	TGFβ R1 (Homo sapiens)	log10(IC50)	2.56
COc1cnc(-c2cc(Cl)ccc2F)nc1Nc1ccncc1C(=O)NCC(C)(C)N [Compound 130]	TGFβ R1 (Homo sapiens)	log10(IC50)	1.58
O=C(NC1CC1)c1cnccc1Nc1nc(-c2cc(Cl)ccc2F)ncc1Br [Compound 108]	TGFβ R1 (Homo sapiens)	log10(IC50)	3.40
COc1cnc(-c2cc(Cl)ccc2F)nc1Nc1ccncc1C(=O)NCCNCCC1O[C@H](CO)[C@@H](O)[C@H](O)[C@H]1O (stereo partly drawn) [Compound 136]	TGFβ R1 (Homo sapiens)	log10(IC50)	0.85
COc1cnc(-c2cc(Cl)ccc2F)nc1Nc1ccncc1C(=O)NCC1CN(Cc2ccccc2)CCO1 (stereo not drawn) [Compound 30]	TGFβ R1 (Homo sapiens)	log10(IC50)	3.37
COc1cnc(-c2cc(Cl)ccc2F)nc1Nc1ccncc1C(=O)NCCNCCOC1O[C@H](CO)[C@H](O)[C@H](O)[C@H]1O (stereo partly drawn) [Compound 158]	TGFβ R1 (Homo sapiens)	log10(IC50)	0.70
COc1ccc(NC(=O)NCCCNC(=O)c2cnccc2Nc2nc(-c3cc(Cl)ccc3F)ncc2OC)cc1OC [Compound 67]	TGFβ R1 (Homo sapiens)	log10(IC50)	2.64
O=C(NCCO)c1cnccc1Nc1nc(-c2cc(Cl)ccc2F)ncc1N1CCCC1 [Compound 24]	TGFβ R1 (Homo sapiens)	log10(IC50)	2.69
COc1cnc(-c2cc(Cl)ccc2F)nc1Nc1ccncc1C(=O)NCCCN1CC[C@@H](F)C1 [Compound 155]	TGFβ R1 (Homo sapiens)	log10(IC50)	0.90
CCOP(=O)(OCC)O[C@@H](C)CNC(=O)c1cnccc1Nc1nc(-c2cc(Cl)ccc2F)ncc1OC [Compound 121]	TGFβ R1 (Homo sapiens)	log10(IC50)	3.76
CNC(=O)c1cnccc1Nc1nc(-c2cc(Cl)ccc2F)ncc1Cl [Compound 119]	TGFβ R1 (Homo sapiens)	log10(IC50)	2.19
COc1cnc(-c2cc(Cl)ccc2F)nc1Nc1ccncc1C(=O)N[C@H]1CCNC1 [Compound 128]	TGFβ R1 (Homo sapiens)	log10(IC50)	0.90
COc1cnc(-c2cc(Cl)ccc2F)nc1Nc1ccncc1C(=O)NCCCN1CC[C@H](O)C1 [Compound 109]	TGFβ R1 (Homo sapiens)	log10(IC50)	2.52
COc1cnc(-c2cc(Cl)ccc2F)nc1Nc1ccncc1C(=O)N[C@@H]1CCOC1=O [Compound 62]	TGFβ R1 (Homo sapiens)	log10(IC50)	2.56
COc1cnc(-c2cc(Cl)ccc2F)nc1Nc1ccncc1C(=O)NC1CCN(C(=O)OC(C)(C)C)CC1 [Compound 8]	TGFβ R1 (Homo sapiens)	log10(IC50)	1.78
COc1cnc(-c2cc(Cl)ccc2F)nc1Nc1ccncc1C(=O)NCCCN(C)C [Compound 7]	TGFβ R1 (Homo sapiens)	log10(IC50)	1.48
CC(C)c1cnc(-c2cc(Cl)ccc2F)nc1Nc1ccncc1C(=O)NCC(C)(C)O [Compound 52]	TGFβ R1 (Homo sapiens)	log10(IC50)	1.95
COc1cnc(-c2cc(Cl)ccc2F)nc1Nc1cc[n+]([O-])cc1C(=O)NC1CC1 [Compound 114]	TGFβ R1 (Homo sapiens)	log10(IC50)	3.49
CC(C)c1cnc(-c2cc(Cl)ccc2F)nc1Nc1ccncc1C(=O)N[C@H](CO)[C@@H](C)O [Compound 84]	TGFβ R1 (Homo sapiens)	log10(IC50)	3.24
COc1cnc(-c2cc(Cl)ccc2F)nc1Nc1ccncc1C(=O)NCCCNC(=O)COC1O[C@H](CO)[C@@H](O)[C@H](O)[C@H]1O (stereo in doubt) [Compound 135]	TGFβ R1 (Homo sapiens)	log10(IC50)	1.78
COc1cnc(-c2cc(Cl)ccc2F)nc1Nc1ccncc1C(=O)NC1CN(C(=O)OC(C)(C)C)C1 [Compound 86]	TGFβ R1 (Homo sapiens)	log10(IC50)	2.49
COc1cnc(-c2cc(Cl)ccc2F)nc1Nc1ccncc1C(=O)NCCCN [Compound 100]	TGFβ R1 (Homo sapiens)	log10(IC50)	1.48
COC[C@H]1OC(CCNCCCNC(=O)c2cnccc2Nc2nc(-c3cc(Cl)ccc3F)ncc2OC)[C@H](OC)[C@@H](OC)[C@H]1OC (stereo partly drawn) [Compound 126]	TGFβ R1 (Homo sapiens)	log10(IC50)	1.70
